- system name: T1, CD73 on the surface of human cells (human, UniProt P21589 27-549)
- T1 construct: whole, on cells; The cell line of each value is named under assay or readout; also called CD73 on the surface of tumor cells; CD73 enzyme on the surface of MDA-MB-231 cells
- T1 sequence (looked up): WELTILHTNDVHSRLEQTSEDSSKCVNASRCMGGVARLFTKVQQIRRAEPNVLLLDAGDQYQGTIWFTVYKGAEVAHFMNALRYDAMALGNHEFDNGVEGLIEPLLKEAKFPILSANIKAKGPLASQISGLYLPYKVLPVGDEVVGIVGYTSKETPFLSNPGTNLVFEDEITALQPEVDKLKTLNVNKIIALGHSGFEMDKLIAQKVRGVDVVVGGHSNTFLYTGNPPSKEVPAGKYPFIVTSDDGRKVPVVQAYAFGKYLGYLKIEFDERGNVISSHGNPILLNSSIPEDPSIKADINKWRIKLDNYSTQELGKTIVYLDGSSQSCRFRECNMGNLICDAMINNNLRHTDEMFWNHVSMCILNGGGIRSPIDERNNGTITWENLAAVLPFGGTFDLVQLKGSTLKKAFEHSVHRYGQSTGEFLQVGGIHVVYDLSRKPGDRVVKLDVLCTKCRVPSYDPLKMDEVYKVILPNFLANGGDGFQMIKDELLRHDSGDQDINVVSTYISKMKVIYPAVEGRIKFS
- protocol description: flow cytometry on MDA-MB-231 cells
property: EC50 (µg/mL)

EC50 reported for this binder chimeric nanobody 5-E11 (Fc fusion, Human-alpaca chimeric antibody (VHH on hIgG1 Fc); Only the VHH is tied to the tested molecule; also called original antibody 5-E11) VHH: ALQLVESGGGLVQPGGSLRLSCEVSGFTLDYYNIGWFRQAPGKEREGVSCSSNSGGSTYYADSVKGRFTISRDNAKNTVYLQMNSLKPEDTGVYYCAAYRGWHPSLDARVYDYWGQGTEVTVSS : 0.037

I: chimeric nanobody 4-D04 (Fc fusion, Human-alpaca chimeric antibody) VHH: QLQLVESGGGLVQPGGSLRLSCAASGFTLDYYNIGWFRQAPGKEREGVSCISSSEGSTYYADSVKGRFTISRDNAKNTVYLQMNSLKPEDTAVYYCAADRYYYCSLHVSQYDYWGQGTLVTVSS
II: chimeric nanobody 4-B02 (Fc fusion, Human-alpaca chimeric antibody) VHH: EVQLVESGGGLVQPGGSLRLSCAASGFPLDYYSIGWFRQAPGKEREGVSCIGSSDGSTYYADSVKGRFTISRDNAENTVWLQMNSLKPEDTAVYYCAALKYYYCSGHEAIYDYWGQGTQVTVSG
# input EC50 comparison. Which is larger, I or II ? Use the label to indicate which entry you chose.
# output I
(I: 0.059 µg/mL, II: 0.037 µg/mL)
